- Assay protocol: Pharmacokinetics in female BALB/c nude mice bearing A375 xenografts, 1 day dosing (PK and PD study): plasma, tumor and brain concentrations, AUC
- Format: in vivo
- Run conditions: mouse, brain, po, 10 mg/kg, 10 mg/kg p.o. BID × 1 day; post 2nd dose; 1 h; read-out: Mean Concentration in Brain ± SEM
Property measured: concentration at 1 h (ng/g)
Answers are plain numbers, in ng/g.

Data request: Name the reported concentration at 1 h value associated with the compound `CCN(C)S(=O)(=O)Nc1ccc(F)c(Oc2ccc3ncn([C@H]4COC5(CCN(C6CC7(C6)CN(c6cc8c(cc6F)c(N6CCC(=O)NC6=O)nn8C)C7)CC5)C4)c(=O)c3c2)c1C#N`
Data returned: 313

* * *

- Assay protocol: Pharmacokinetics in female BALB/c nude mice bearing A375 xenografts, 1 day dosing (PK and PD study): plasma, tumor and brain concentrations, AUC
- Assay type: in vivo
- Run conditions: mouse, plasma, po, 3 mg/kg, 3 mg/kg p.o. BID × 1 day; post 1st dose; 1 h; read-out: Mean Concentration in Plasma ± SEM
Property measured: concentration at 1 h
Entry format: amount then unit.

Data request: Please report the recorded concentration at 1 h for CCN(C)S(=O)(=O)Nc1ccc(F)c(Oc2ccc3ncn([C@H]4COC5(CCN(C6CC7(C6)CN(c6cc8c(cc6F)c(N6CCC(=O)NC6=O)nn8C)C7)CC5)C4)c(=O)c3c2)c1C#N [Compound 26] .
Data returned: 7840 ng/mL

* * *

Consider the following compounds; for each one, report its concentration at 6 h.
- Assay protocol: Example 6 pharmacokinetics assay for PKPD study (plasma, tumor, liver)
- Type: in vivo, BALB/c nude mice
- Run conditions: mouse, tumor, po; 10 mg/kg, single dose; 6 h; read-out: Concentration in Tumor (mean ± SEM)
One number for each entry, in ng/g.

Example entries begin here.
| Compound | concentration at 6 h, ng/g |
| --- | --- |
| Cn1nc(N2CCC(=O)NC2=O)c2cc(F)c(C3CCC(N4CCC5(CC4)CC(n4cnc6ccc(Oc7c(F)ccc(NS(=O)(=O)C8CCCC8)c7C#N)cc6c4=O)C5)CC3)cc21 (single isomer, unassigned) | 129 |
| CCN(C)S(=O)(=O)Nc1ccc(F)c(Oc2ccc3ncc([C@@H]4COC5(CCN(C6CCC(c7cc8c(cc7F)c(N7CCC(=O)NC7=O)nn8C)CC6)CC5)C4)nc3c2)c1C#N (single isomer, unassigned) | 931 |

Attention now turns to another entry.
Data request: What value of measured concentration at 6 h is listed for CCN(C)S(=O)(=O)Nc1ccc(F)c(Oc2ccc3ncn(C4CC5(CCN(C6CCC(c7cc8c(cc7F)c(N7CCC(=O)NC7=O)nn8C)CC6F)CC5)C4)c(=O)c3c2)c1C#N (single isomer, unassigned) ?
Data returned: 1820

* * *

- Assay protocol: Pharmacokinetics in female BALB/c nude mice bearing A375 xenografts, 1 day dosing (PK and PD study): plasma, tumor and brain concentrations, AUC
- Format: in vivo
- Run conditions: mouse, plasma, po, 2 mg/kg, 2 mg/kg p.o. TID × 1 day; post 3rd dose; 0.25 h; read-out: Mean Concentration in Plasma ± SEM
Property measured: concentration at 0.25 h (ng/mL)
Numbers only, in ng/mL.

Data request: # lookup: concentration at 0.25 h of CCN(C)S(=O)(=O)Nc1ccc(F)c(Oc2ccc3ncn([C@H]4COC5(CCN(C6CC7(C6)CN(c6cc8c(cc6F)c(N6CCC(=O)NC6=O)nn8C)C7)CC5)C4)c(=O)c3c2)c1C#N [Compound 26]
Data returned: 1090
